Biological target: T1, CRF1R receptor (UniProt P34998 24-415, limits assumed)
T1 sequence (looked up): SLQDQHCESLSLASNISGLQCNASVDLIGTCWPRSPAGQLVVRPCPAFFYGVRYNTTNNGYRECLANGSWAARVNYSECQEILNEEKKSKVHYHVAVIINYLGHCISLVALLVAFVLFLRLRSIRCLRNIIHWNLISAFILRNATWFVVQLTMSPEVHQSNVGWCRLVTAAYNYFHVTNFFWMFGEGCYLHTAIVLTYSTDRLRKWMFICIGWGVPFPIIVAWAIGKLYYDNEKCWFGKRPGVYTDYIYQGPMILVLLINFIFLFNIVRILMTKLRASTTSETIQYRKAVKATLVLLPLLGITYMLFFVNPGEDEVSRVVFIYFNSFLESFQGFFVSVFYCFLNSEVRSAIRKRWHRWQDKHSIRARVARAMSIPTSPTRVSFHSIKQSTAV
Test: cell-based or functional assay
*1 amine or outer side, *2 acyl side, *3 side chain or, on linkers, in order; H or OH if unused. Where no end group is shown, it is not given here. Side-chain parts run from the residue outwards. [ ]: non-standard residue; d: D form. The star is where a group is joined. C16 diacid = O=C(O)CCCCCCCCCCCCCCC(=O)*; γGlu = O=C(O)[C@H](CCC(=O)[*:2])N[*:1]; C14 diacid = O=C(O)CCCCCCCCCCCCC(=O)*; AEEA = NCCOCCOCC(=O)O; Aib = CC(C)(N)C(=O)O
Threshold rule: Emax (% I) greater than or equal to 10% is Condition met; below that, Condition not met.

I'd appreciate it if you could say whether IVLSLD[dV]PIKLK([γGlu-C16 diacid])QILLKQERQKKQREQAEKN[Aib]QILEQV-NH2 [SEQ ID NO 10] has Emax (% I) at least equal to 10%.
Condition met

I'd appreciate it if you could say whether IVLSLD[dV]PIKLK([AEEA-AEEA-γGlu-C16 diacid])QILLKQERQKKQREQAEKNKQILEQV-NH2 [SEQ ID NO 148] has Emax (% I) at least equal to 10%.
Condition met

I'd appreciate it if you could say whether Ac-VLSLD[dV]PIKLK([γGlu-C16 diacid])QILLKQERQKKQREQAEKNKQILEQV-NH2 [SEQ ID NO 3] has Emax (% I) at least equal to 10%.
Condition met

I'd appreciate it if you could say whether Ac-IVLSLD[dV]PIKLK([γGlu-C16 diacid])KILLEQEKQK[Aib]QREQAETN[Aib]QILAQV-NH2 [SEQ ID NO 162] has Emax (% I) at least equal to 10%.
Condition not met

Then there is this binder:
I'd appreciate it if you could say whether Ac-IVLSLD[dV]PIKLK([AEEA-γGlu-γGlu-C14 diacid])KILLEQEKQKKQREQAETN[Aib]QILAQV-NH2 [SEQ ID NO 174] has Emax (% I) at least equal to 10%.
Condition met
